Overview of recorded ELISA hIL-12RB2/control for various binders
Molecular target: T1, biotinylated recombinant human IL-12Rβ2 (human, UniProt Q99665 24-622, random biotinylated)
T1 construct: Recombinant protein produced in-house; also called hIL-12RB2; human IL-12RB2
T1 sequence: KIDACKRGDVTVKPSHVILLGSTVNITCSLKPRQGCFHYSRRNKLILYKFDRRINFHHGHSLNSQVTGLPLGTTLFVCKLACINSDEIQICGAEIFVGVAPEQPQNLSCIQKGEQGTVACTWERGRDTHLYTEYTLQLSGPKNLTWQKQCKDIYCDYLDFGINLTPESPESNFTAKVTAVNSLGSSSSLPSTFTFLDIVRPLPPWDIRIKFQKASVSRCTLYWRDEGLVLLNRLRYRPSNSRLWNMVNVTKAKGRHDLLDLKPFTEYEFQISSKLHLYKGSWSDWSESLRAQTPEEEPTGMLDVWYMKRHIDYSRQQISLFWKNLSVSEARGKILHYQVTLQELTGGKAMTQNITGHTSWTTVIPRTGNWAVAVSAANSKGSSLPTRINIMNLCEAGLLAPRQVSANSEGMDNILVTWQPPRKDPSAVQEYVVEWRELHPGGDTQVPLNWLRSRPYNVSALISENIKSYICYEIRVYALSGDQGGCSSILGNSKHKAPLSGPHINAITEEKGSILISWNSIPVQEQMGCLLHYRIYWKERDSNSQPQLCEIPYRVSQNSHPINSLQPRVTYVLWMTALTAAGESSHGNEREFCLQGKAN
Test: ELISA, P.E., biotinylated antigen
Please reply with the value in numeric form only.

# binder, ELISA hIL-12RB2/control
data = [
    ("anti-IL-12Rβ2 VHH clone 3CRHS3 (clone ID 20414) (VHH, not shown: small tags and cut ends, periplasmic extract) VHH: QVQLQESGGGLVQPGGSLRLSCTASGSIFSIYNMDWYRQAPGNQREWVASITSSGDPYYDASVKGRFTISRDSAKMTVYLQMNSLKPEDTAVYYCKLPTEKGNYWGQGTQVTVSS", 6.39),
]

ELISA hIL-12RB2/control reported for this binder anti-IL-12Rβ2 VHH clone 3CRH67 (clone ID 20387) (VHH, not shown: small tags and cut ends, periplasmic extract) VHH: QVQLQESGGGLVQAGGSLVLSCAASGSAALIFLMSWYRQAPGKQRELVAEVSRYGSTTYADSVEGRFTISRDNAKNIVDLQMNSLKPEDTAAYYCKADQYYGDSLRSSWGRGTQVTVSS : 10
